A short record of log10 IC50 observed with UniProtKB P30874 follows.
Sequence (P30874 whole entry, species assumed): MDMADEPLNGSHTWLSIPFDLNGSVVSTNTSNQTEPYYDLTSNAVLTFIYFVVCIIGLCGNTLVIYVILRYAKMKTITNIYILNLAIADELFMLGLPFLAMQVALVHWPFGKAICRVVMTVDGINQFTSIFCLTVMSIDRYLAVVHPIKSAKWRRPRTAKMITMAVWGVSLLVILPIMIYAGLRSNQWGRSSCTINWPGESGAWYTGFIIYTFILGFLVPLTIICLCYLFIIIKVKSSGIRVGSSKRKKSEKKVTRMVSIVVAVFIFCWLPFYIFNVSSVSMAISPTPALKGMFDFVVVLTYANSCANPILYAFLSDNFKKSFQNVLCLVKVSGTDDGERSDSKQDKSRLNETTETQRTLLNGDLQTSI
A difference of one corresponds to tenfold IC50; all values are log10 with IC50 in nM.

Here are 5 compounds together with their reported answers.
>>> data_value("C[C@@H](O)[C@H](NC(=O)C1CSSCC(NC(=O)C(Cc2ccccc2)NC(=O)CNC(=O)CNC(=O)CNC(=O)C(CC(=O)O)NC(=O)[C@@H](CC(=O)O)NC(=O)C(CCCNC(N)=O)NC(=O)[C@@H](CNC(=O)C[N+](C)(C)Cc2ccc([Si](F)(C(C)(C)C)C(C)(C)C)cc2)NC(=O)CN2CCN(CC(=O)O)CCN(CC(=O)O)CCN(CC(=O)O)CC2)C(=O)N[C@@H](Cc2ccc(O)cc2)C(=O)NC(Cc2c[nH]c3ccccc23)C(=O)N[C@@H](CCCCN)C(=O)N[C@@H]([C@@H](C)O)C(=O)N1)C(=O)O (some centres unmarked) (natGa complex, metal not drawn) [[Ga]46]")
0.68
>>> data_value("C[C@@H](O)[C@H](NC(=O)C1CSSCC(NC(=O)C(Cc2ccccc2)NC(=O)CNC(=O)CNC(=O)[C@@H](CC(=O)O)NC(=O)C(CC(=O)O)NC(=O)[C@@H](CNC(=O)CN2CCN(CC(=O)O)CCN(CC(=O)O)CCN(CC(=O)O)CC2)NC(=O)C[N+](C)(C)Cc2ccc([Si](F)(C(C)(C)C)C(C)(C)C)cc2)C(=O)N[C@@H](Cc2ccc(O)cc2)C(=O)NC(Cc2c[nH]c3ccccc23)C(=O)N[C@@H](CCCCN)C(=O)N[C@@H]([C@@H](C)O)C(=O)N1)C(=O)O (some centres unmarked) (natLu complex, metal not drawn) [[Lu]24]")
0.74
>>> data_value("C[C@@H](O)[C@H](NC(=O)C1CSSCC(NC(=O)C(Cc2ccccc2)NC(=O)[C@@H](CC(N)=O)NC(=O)C(CC(N)=O)NC(=O)CNC(=O)C(CC(=O)O)NC(=O)[C@@H](CC(=O)O)NC(=O)C(CNC(=O)CN2CCN(CC(=O)O)CCN(CC(=O)O)CCN(CC(=O)O)CC2)NC(=O)C[N+](C)(C)Cc2ccc([Si](F)(C(C)(C)C)C(C)(C)C)cc2)C(=O)N[C@@H](Cc2ccc(O)cc2)C(=O)NC(Cc2c[nH]c3ccccc23)C(=O)N[C@@H](CCCCN)C(=O)N[C@@H]([C@@H](C)O)C(=O)N1)C(=O)O (some centres unmarked) (natGa complex, metal not drawn) [[Ga]49]")
0.80
>>> data_value("CC(O)C(NC(=O)C1CSSCC(NC(=O)C(Cc2ccccc2)NC(=O)CNC(=O)CNC(=O)CNC(=O)[C@@H](CCCN)NC(=O)[C@@H](CCCN)NC(=O)C(CNC(=O)CN2CCN(CC(=O)O)CCN(CC(=O)O)CCN(CC(=O)O)CC2)NC(=O)C[N+](C)(C)Cc2ccc([Si](F)(C(C)(C)C)C(C)(C)C)cc2)C(=O)N[C@@H](Cc2ccc(O)cc2)C(=O)NC(Cc2c[nH]c3ccccc23)C(=O)N[C@@H](CCCCN)C(=O)N[C@@H]([C@@H](C)O)C(=O)N1)C(=O)O (some centres unmarked) (natGa complex, metal not drawn) [[Ga]55]")
0.61
>>> data_value("C[C@@H](O)[C@H](NC(=O)C1CSSCC(NC(=O)C(Cc2ccccc2)NC(=O)CNC(=O)CNC(=O)CNC(=O)C(CC(=O)O)NC(=O)[C@@H](CC(=O)O)NC(=O)C(CCCCN)NC(=O)[C@@H](CNC(=O)CN2CCN(CC(=O)O)CCN(CC(=O)O)CCN(CC(=O)O)CC2)NC(=O)C[N+](C)(C)Cc2ccc([Si](F)(C(C)(C)C)C(C)(C)C)cc2)C(=O)N[C@@H](Cc2ccc(O)cc2)C(=O)NC(Cc2c[nH]c3ccccc23)C(=O)N[C@@H](CCCCN)C(=O)N[C@@H]([C@@H](C)O)C(=O)N1)C(=O)O (some centres unmarked) (natGa complex, metal not drawn) [[Ga]57]")
0.68

// recorded log10 IC50 for C[C@@H](O)[C@H](NC(=O)C1CSSCC(NC(=O)C(Cc2ccccc2)NC(=O)[C@@H](CC(N)=O)NC(=O)C(CC(N)=O)NC(=O)CNC(=O)C(CC(=O)O)NC(=O)[C@@H](CC(=O)O)NC(=O)C(CNC(=O)CN2CCN(CC(=O)O)CCN(CC(=O)O)CCN(CC(=O)O)CC2)NC(=O)C[N+](C)(C)Cc2ccc([Si](F)(C(C)(C)C)C(C)(C)C)cc2)C(=O)N[C@@H](Cc2ccc(O)cc2)C(=O)NC(Cc2c[nH]c3ccccc23)C(=O)N[C@@H](CCCCN)C(=O)N[C@@H]([C@@H](C)O)C(=O)N1)C(=O)O (some centres unmarked) (natLu complex, metal not drawn) [[Lu]49] : 0.65

Lab note: measured log10 IC50 of C[C@@H](O)[C@H](NC(=O)C1CSSCC(NC(=O)C(Cc2ccccc2)NC(=O)CNC(=O)CNC(=O)[C@@H](CC(=O)O)NC(=O)C(CC(=O)O)NC(=O)[C@@H](CNC(=O)c2ccc([Si](F)(C(C)(C)C)C(C)(C)C)cc2)NC(=O)CN2CCN(CC(=O)O)CCN(CC(=O)O)CCN(CC(=O)O)CC2)C(=O)N[C@@H](Cc2ccc(O)cc2)C(=O)NC(Cc2c[nH]c3ccccc23)C(=O)N[C@@H](CCCCN)C(=O)N[C@@H]([C@@H](C)O)C(=O)N1)C(=O)O (some centres unmarked) (natGa complex, metal not drawn) [[Ga]8] was 1.77

Per the records, this compound ( C[C@@H](O)[C@H](NC(=O)C1CSSCC(NC(=O)C(Cc2ccccc2)NC(=O)CNC(=O)CNC(=O)[C@@H](CC(=O)O)NC(=O)C(CC(=O)O)NC(=O)[C@@H](CNC(=O)CN2CCN(CC(=O)O)CCN(CC(=O)O)CCN(CC(=O)O)CC2)NC(=O)c2ccc([Si](F)(C(C)(C)C)C(C)(C)C)cc2)C(=O)N[C@@H](Cc2ccc(O)cc2)C(=O)NC(Cc2c[nH]c3ccccc23)C(=O)N[C@@H](CCCCN)C(=O)N[C@@H]([C@@H](C)O)C(=O)N1)C(=O)O (some centres unmarked) (natGa complex, metal not drawn) [[Ga]9] ) has log10 IC50 equal to 1.80

---

Documented HSA across a set of molecules
Target: HSA (Homo sapiens, UniProt P02768)
Sequence (P02768 25-609): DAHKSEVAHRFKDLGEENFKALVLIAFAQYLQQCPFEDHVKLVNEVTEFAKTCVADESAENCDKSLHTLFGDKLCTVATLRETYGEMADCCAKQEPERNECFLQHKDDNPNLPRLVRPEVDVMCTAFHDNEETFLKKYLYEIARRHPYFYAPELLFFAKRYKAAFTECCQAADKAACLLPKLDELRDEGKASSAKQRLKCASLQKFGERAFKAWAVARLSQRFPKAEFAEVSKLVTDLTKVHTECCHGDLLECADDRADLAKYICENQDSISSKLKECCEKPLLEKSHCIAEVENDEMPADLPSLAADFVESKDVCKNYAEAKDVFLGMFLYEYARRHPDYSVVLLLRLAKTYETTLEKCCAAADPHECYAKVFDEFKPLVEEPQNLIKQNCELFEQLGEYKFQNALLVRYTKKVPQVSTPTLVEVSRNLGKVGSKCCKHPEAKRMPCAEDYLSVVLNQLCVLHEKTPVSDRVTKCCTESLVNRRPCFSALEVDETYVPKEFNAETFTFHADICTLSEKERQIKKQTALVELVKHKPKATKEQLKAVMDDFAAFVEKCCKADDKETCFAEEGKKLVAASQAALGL
Assay: HSA binding by RIAC method (gel filtration, apparent molecular weight)
Type: in vitro ADME
Conditions: HSA binding as apparent molecular weight, 700 μM HSA in PBS mobile phase
Answer format: numeric, kDa implied, no suffix.

Look over these answered cases.
>>> data_value("C[C@@H](O)[C@H](NC(=O)C1CSSCC(NC(=O)C(Cc2ccccc2)NC(=O)COCCOCCNC(=O)C(CC(=O)O)NC(=O)[C@@H](CC(=O)O)NC(=O)C(CNC(=O)CN2CCN(CC(=O)O)CCN(CC(=O)O)CCN(CC(=O)O)CC2)NC(=O)[C@@H](CN)NC(=O)c2ccc([Si](F)(C(C)(C)C)C(C)(C)C)cc2)C(=O)N[C@@H](Cc2ccc(O)cc2)C(=O)NC(Cc2c[nH]c3ccccc23)C(=O)N[C@@H](CCCCN)C(=O)N[C@@H]([C@@H](C)O)C(=O)N1)C(=O)O (stereo partly shown) (natGa complex, metal not drawn) [[Ga]23]")
18.59
>>> data_value("C[C@@H](O)[C@H](NC(=O)C1CSSCC(NC(=O)C(Cc2ccccc2)NC(=O)CNC(=O)CNC(=O)CNC(=O)C(CC(=O)O)NC(=O)[C@@H](CC(=O)O)NC(=O)C(CNC(=O)CN2CCN(CC(=O)O)CCN(CC(=O)O)CCN(CC(=O)O)CC2)NC(=O)[C@@H](CN)NC(=O)CNC(=O)C[N+](C)(C)Cc2ccc([Si](F)(C(C)(C)C)C(C)(C)C)cc2)C(=O)N[C@@H](Cc2ccc(O)cc2)C(=O)NC(Cc2c[nH]c3ccccc23)C(=O)N[C@@H](CCCCN)C(=O)N[C@@H]([C@@H](C)O)C(=O)N1)C(=O)O (stereo partly shown) [[Lu]52]")
8.47

Item: C[C@@H](O)[C@H](NC(=O)C1CSSCC(NC(=O)C(Cc2ccccc2)NC(=O)CNC(=O)CNC(=O)CNC(=O)C(CC(=O)O)NC(=O)[C@@H](CC(=O)O)NC(=O)C(CNC(=O)CN2CCN(CC(=O)O)CCN(CC(=O)O)CCN(CC(=O)O)CC2)NC(=O)[C@@H](CN)NC(=O)C[N+](C)(C)Cc2ccc([Si](F)(C(C)(C)C)C(C)(C)C)cc2)C(=O)N[C@@H](Cc2ccc(O)cc2)C(=O)NC(Cc2c[nH]c3ccccc23)C(=O)N[C@@H](CCCCN)C(=O)N[C@@H]([C@@H](C)O)C(=O)N1)C(=O)O (stereo partly shown) [[Lu]51] | HSA: 8.84

In plain terms, C[C@@H](O)[C@H](NC(=O)C1CSSCC(NC(=O)C(Cc2ccccc2)NC(=O)CNC(=O)CNC(=O)CNC(=O)C(CC(=O)O)NC(=O)[C@@H](CC(=O)O)NC(=O)C(CNC(=O)CN2CCN(CC(=O)O)CCN(CC(=O)O)CCN(CC(=O)O)CC2)NC(=O)C[N+](C)(C)Cc2ccc([Si](F)(C(C)(C)C)C(C)(C)C)cc2)C(=O)N[C@@H](Cc2ccc(O)cc2)C(=O)NC(Cc2c[nH]c3ccccc23)C(=O)N[C@@H](CCCCN)C(=O)N[C@@H]([C@@H](C)O)C(=O)N1)C(=O)O (stereo partly shown) [[Ga]50] has a documented HSA of 8.18
